This section presents compounds with their documented Growth Rate values.
# Test system: U2OS
# measurement-protocol: Incucyte cell viability with U2OS; note: filed as whole numbers so only -1 and 0 and 1 occur
# Assay type: toxicity, cell-based
# recorded-conditions: human, 24 h, 10 µM, compound concentration 10 uM, replicate number 1, timepoint 24 hours

CNC(=O)c1ccc(Nc2nc(OC3CCCC3)c3c(-c4ccc5nc(C)oc5c4)c[nH]c3n2)c(OC)c1: 0
C=CC(=O)N1CCC([C@@H]2CCNc3c(C(N)=O)c(-c4ccc(Oc5ccccc5)cc4)nn32)CC1 [ZANUBRUTINIB]: 0
C[C@@H]1CN(c2cc(-c3n[nH]c4ccc(OC5(C)CC5)cc34)ncn2)C[C@H](C)O1 [MLi-2]: 1
O=C1NC(c2ccccn2)Sc2ccccc21 (stereo not drawn) [BTZO-4]: 0
CCN1CCN(c2ccc(Nc3cc(N(C)C(=O)Nc4c(Cl)c(OC)cc(OC)c4Cl)ncn3)cc2)CC1 [INFIGRATINIB]: 0

QUERY: Please report the measured Growth Rate for `CCOc1cc(C(=O)N2CCC(N3CCN(C)CC3)CC2)ccc1Nc1ncc2c(n1)N(C1CCCC1)c1ccccc1C(=O)N2C`
RESULT: 0

QUERY: Indicate the recorded Growth Rate value for this compound: O=C(NS(=O)(=O)c1ccc(NCC2CCOCC2)c([N+](=O)[O-])c1)c1ccc(N2CCN(Cc3ccc(C(F)(F)F)cc3-c3ccc(Cl)cc3)CC2)cc1Oc1cnc2[nH]ccc2c1 [A-1210227]
RESULT: 1

QUERY: Kindly indicate its recorded Growth Rate. Item: CCOC(=O)c1c(C)[nH]c2ccc3c(c12)CN1CCc2cc(OC)ccc2C1O3 (stereo not drawn)
RESULT: 0
